System: A. baumannii 1570
Experiment: MIC against the primary screening panel (broth microdilution)
Type: cell-based, Acinetobacter baumannii
Design: key: A: a MIC value measurement that is the same as that observed for polymyxin B; a MIC value measured that is lower than the comparable value observed for polymxin B; a MIC value measured that is higher than the comparable value observed for polymyxin B
Settings: relative to polymyxin B
*1 amine or outer side, *2 acyl side, *3 side chain or, on linkers, in order; H or OH if unused. Where a SMILES comes first, the peptide text is derived from it. Bridges are numbered along the chain shown (N, C = ends). [ ]: non-standard residue; d: D form. The star is where a group is joined. ξ: configuration not given here. Octanoyl(6-Me) = CCC(C)CCCCC(=O)*; Thr(3ξ) = CC(O)[C@H](N)C(=O)O; NH(2-ClPh) = Clc1ccccc1N*; X1 = CC[C@H](C)CCCCC(=O)*; dDab = NCC[C@@H](N)C(=O)O; Dab = NCC[C@H](N)C(=O)O; CO = O=C([*:1])[*:2]; ξDab = NCCC(N)C(=O)O

{"columns": ["Compound", "MIC A. baumannii 1570"],
 "data": [
  ["CC[C@H](C)CCCCC(=O)N[C@@H](CCN)C(=O)N[C@H](C(=O)N[C@H](CCN)C(=O)N[C@H]1CCNC(=O)[C@H]([C@@H](C)O)NC(=O)[C@H](CCN)NC(=O)[C@H](CCN)NC(=O)[C@H]([C@@H](C)O)NC(=O)[C@@H](CC(C)C)NC(=O)[C@H](CCN)NC1=O)[C@@H](C)O [Native Polymyxin A, Polymyxin A] (X1-[Dab]T[dDab][Dab][Dab][dL]T[Dab][Dab]T; lactam 4-C)", "C"],
  ["CC(C)C[C@H]1NC(=O)[C@H](CCN)NC(=O)[C@@H](NC(=O)[C@@H](CCN)NC(=O)[C@@H](NC(=O)[C@H](CCN)NC(=O)[C@H]2C[C@@H]2c2ccccc2)C(C)O)CCNC(=O)[C@H](C(C)O)NC(=O)[C@H](CCN)NC(=O)[C@H](CCN)NC(=O)[C@H](C(C)O)NC1=O (single isomer, unassigned)", "C"],
  ["CC(C)C[C@@H]1NC(=O)[C@@H](Cc2ccccc2)NC(=O)[C@H](CCN)NC(=O)C(NC(=O)[C@H](CCN)NC(=O)[C@@H](NC(=O)[C@H](CCN)NC(=O)Nc2ccccc2Cl)C(C)O)CCNC(=O)[C@H](C(C)O)NC(=O)[C@H](CCN)NC(=O)C(CCN)NC1=O (stereo partly shown) [Formula (II) comparator] ({NH(2-ClPh)-CO}-[Dab][Thr(3ξ)][Dab][ξDab][Dab][dF]L[ξDab][Dab][Thr(3ξ)]; lactam 4-C)", "C"],
  ["CCC(C)CCCCC(=O)N[C@@H](CCN)C(=O)N[C@H](C(=O)N[C@@H](CCN)C(=O)NC1CCNC(=O)[C@H](C(C)O)NC(=O)[C@H](CCN)NC(=O)C(CCN)NC(=O)[C@H](CC(C)C)NC(=O)[C@@H](Cc2ccccc2)NC(=O)[C@H](CCN)NC1=O)C(C)O (stereo partly shown) [Polymyxin B] ({Octanoyl(6-Me)}-[Dab][Thr(3ξ)][Dab][ξDab][Dab][dF]L[ξDab][Dab][Thr(3ξ)]; lactam 4-C)", "A"]
]}
